Reference source: patent US9499535B2

Consider the following molecules and their measured pIC50 readings.
target: LRRK2 (Homo sapiens); assay: LRRK2 assay (LanthaScreen Eu Kinase Binding Assay); details: 5 nM LRRK2, 10 nM tracer 236, RT 1 h; read-out: LRRK2 Activites: IC50
Sequence (Q5S007 970-2527 limits assumed): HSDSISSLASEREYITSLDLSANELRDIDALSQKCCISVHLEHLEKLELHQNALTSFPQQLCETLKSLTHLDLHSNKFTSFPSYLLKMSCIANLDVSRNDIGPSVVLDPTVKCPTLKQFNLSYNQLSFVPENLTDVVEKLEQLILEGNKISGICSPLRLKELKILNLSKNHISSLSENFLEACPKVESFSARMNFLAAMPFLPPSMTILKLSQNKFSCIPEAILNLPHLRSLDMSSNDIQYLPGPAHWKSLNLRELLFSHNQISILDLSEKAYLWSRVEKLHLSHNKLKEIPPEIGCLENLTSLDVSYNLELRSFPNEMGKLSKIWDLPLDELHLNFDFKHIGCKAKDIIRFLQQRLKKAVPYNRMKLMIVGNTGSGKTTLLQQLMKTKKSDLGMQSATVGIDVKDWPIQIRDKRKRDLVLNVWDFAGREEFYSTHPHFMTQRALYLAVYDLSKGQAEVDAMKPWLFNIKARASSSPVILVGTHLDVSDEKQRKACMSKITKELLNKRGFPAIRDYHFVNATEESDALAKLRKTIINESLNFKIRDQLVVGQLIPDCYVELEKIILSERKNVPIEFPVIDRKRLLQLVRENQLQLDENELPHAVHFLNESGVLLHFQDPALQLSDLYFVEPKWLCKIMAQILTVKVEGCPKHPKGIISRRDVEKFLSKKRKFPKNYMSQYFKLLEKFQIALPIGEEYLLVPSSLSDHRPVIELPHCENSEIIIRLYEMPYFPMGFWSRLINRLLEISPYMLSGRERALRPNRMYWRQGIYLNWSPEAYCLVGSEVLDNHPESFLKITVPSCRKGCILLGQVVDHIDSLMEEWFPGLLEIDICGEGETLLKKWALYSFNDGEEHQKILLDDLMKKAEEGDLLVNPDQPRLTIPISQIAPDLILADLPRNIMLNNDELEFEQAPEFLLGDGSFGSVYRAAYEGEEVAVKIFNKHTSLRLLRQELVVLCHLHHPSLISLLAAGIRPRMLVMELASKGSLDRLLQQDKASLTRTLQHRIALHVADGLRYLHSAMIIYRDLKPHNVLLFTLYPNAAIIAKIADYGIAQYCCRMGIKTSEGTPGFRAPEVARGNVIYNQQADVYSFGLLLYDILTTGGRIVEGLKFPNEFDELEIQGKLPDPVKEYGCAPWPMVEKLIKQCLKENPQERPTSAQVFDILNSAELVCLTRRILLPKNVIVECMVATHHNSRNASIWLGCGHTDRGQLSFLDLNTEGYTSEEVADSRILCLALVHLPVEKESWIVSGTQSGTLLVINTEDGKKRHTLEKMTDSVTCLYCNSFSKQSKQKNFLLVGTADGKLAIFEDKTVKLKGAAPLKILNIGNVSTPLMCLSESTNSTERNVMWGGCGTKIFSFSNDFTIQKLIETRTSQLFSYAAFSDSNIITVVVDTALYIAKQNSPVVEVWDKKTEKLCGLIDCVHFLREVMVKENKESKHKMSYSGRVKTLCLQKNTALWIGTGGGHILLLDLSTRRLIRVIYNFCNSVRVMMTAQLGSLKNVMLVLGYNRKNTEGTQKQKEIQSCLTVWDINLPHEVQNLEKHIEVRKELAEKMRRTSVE
pIC50: −log10 of the molar value.
endpoint-label: pIC50

COc1ccc(Nc2nc3cccc(OC)c3c3c[nH]nc23)cc1OC : 6.00 to 7.00
COc1ccc2nc(Nc3cc(F)c(F)c(F)c3)c3n[nH]cc3c2c1 : 6.00 to 7.00
COc1ccc2nc(Nc3cccc(NC(C)=O)c3)c3[nH]ncc3c2c1 : 7.00 to 8.00
COc1ccc2nc(Nc3ccc(C(=O)N4CCC(N5CCN(C)CC5)CC4)cc3OC)c3n[nH]cc3c2c1 : 7.00 to 8.00
COc1ccc2nc(Nc3ccc(NCCN(C)C)nc3)c3n[nH]cc3c2c1 : 6.00 to 7.00
COc1ccc2nc(Nc3cccc(S(N)(=O)=O)c3)c3n[nH]cc3c2c1 : 7.00 to 8.00
COc1ccc2nc(Nc3ccc4c(c3)OCO4)c3n[nH]cc3c2c1 : 6.00 to 7.00
CN1CCN(C2CCN(c3ccc(Nc4nc5cccc(F)c5c5cn[nH]c45)cc3)CC2)CC1 : 7.00 to 8.00
COc1cc(OC)c2nc(Nc3ccc(N4CCN(C5CC5)CC4)cc3)c3n[nH]cc3c2c1 : 6.00 to 7.00
COc1cccc2c1nc(Nc1ccc3c(c1)NCCO3)c1n[nH]cc12 : 6.00 to 7.00
COc1ccc(Nc2nc3ccc(OC)cc3c3c[nH]nc23)cc1 : 6.00 to 7.00
COc1ccc2c(c1)nc(Nc1ccc3c(c1)NC(=O)CCC3)c1n[nH]cc12 : 6.00 to 7.00
O=C(O)c1cccc(Nc2nc3ccc(O)cc3c3c[nH]nc23)c1 : 6.00 to 7.00
COc1cccc2c1nc(Nc1ccc(N3CCOCC3)cc1)c1[nH]ncc12 : 6.00 to 7.00
COc1cccc2c1nc(Nc1ccc3cn[nH]c3c1)c1n[nH]cc12 : 6.00 to 7.00
COc1ccc2nc(Nc3ccc(N4CCN(C5CCCC5)CC4)cc3)c3n[nH]cc3c2c1 : 7.00 to 8.00
CC(=O)N1CCN(c2ccc(Nc3nc4ccc(I)cc4c4cn[nH]c34)cc2)CC1 : 6.00 to 7.00
COc1ccc2nc(Nc3ccc(C(=O)N4CCCN(C)CC4)cc3)c3n[nH]cc3c2c1 : 6.00 to 7.00
COc1cccc2nc(Nc3ccc4c(c3)CN(C)C4)c3[nH]ncc3c12 : 7.00 to 8.00
COc1ccc2nc(Nc3cccc(N4CCN(C)CC4)c3)c3n[nH]cc3c2c1 : 6.00 to 7.00
Fc1ccc2nc(Nc3ccc(N4CCOCC4)cc3)c3[nH]ncc3c2c1 : 6.00 to 7.00
COc1ccc2nc(Nc3cccc(N)c3)c3n[nH]cc3c2c1 : 7.00 to 8.00
COc1cccc2c1nc(Nc1ccc3c(c1)NC(=O)CCC3)c1n[nH]cc12 : 6.00 to 7.00
COc1ccc2nc(Nc3cc(C4CCC4)n[nH]3)c3n[nH]cc3c2c1 : > 8.00
COc1ccc2nc(Nc3ccc4c(c3)c(C)c(C)n4C)c3n[nH]cc3c2c1 : 6.00 to 7.00
COc1cc(OC)c2nc(Nc3ccc(CN4CCN(C)CC4)cc3)c3n[nH]cc3c2c1 : 6.00 to 7.00
COc1ccc2nc(Nc3cc(C4CC4)[nH]n3)c3[nH]ncc3c2c1 : 7.00 to 8.00
COc1ccc2nc(Nc3cc(OC)c(OC)c(OC)c3)c3n[nH]cc3c2c1 : 6.00 to 7.00
COc1ccc2nc(Nc3ccc(N4CCN(CCN(C)C)CC4)cc3)c3n[nH]cc3c2c1 : 7.00 to 8.00
COc1ccc2c(c1)nc(Nc1ccc3c(c1)NC(=O)CO3)c1n[nH]cc12 : 7.00 to 8.00
Brc1ccc2nc(Nc3ccc4[nH]cnc4c3)c3n[nH]cc3c2c1 : 6.00 to 7.00
COc1ccc2nc(Nc3ccc(C(=O)N(C)CCN(C)C)cc3)c3n[nH]cc3c2c1 : 7.00 to 8.00
COc1ccc2nc(Nc3ccc4c(c3)CCCN4C)c3n[nH]cc3c2c1 : 6.00 to 7.00
COc1ccc2nc(Nc3ccc(N4CCN(C)CC4)nc3)c3n[nH]cc3c2c1 : 7.00 to 8.00
COc1ccc2nc(Nc3ccc(C)cc3)c3n[nH]cc3c2c1 : 6.00 to 7.00
COc1ccc2nc(Nc3ccc(NCCCN(C)C)nc3)c3n[nH]cc3c2c1 : 6.00 to 7.00
COc1cc2nc(Nc3cc(C4CC4)[nH]n3)c3n[nH]cc3c2cc1OC : 7.00 to 8.00
